system: HeLa; experiment: Cytotoxicity against human HeLa cells by MTT assay; type: cell-based
# CC50 per entry
ATTRIBUTE MEASURED: CC50 (µM)

[
  {
    "COMPOUND": "Cc1c(CCC(=O)O)c(=O)oc2c(C)c(OCc3cccc4ccccc34)ccc12",
    "QUALIFIER SIGN": "=",
    "MEASURED": 6
  },
  {
    "COMPOUND": "Oc1ccc(O)c(-c2ccc(-c3nnc(S)o3)o2)c1",
    "QUALIFIER SIGN": "=",
    "MEASURED": 66
  },
  {
    "COMPOUND": "COc1ccc(Nc2nc(N)nc(-c3cc4ccccc4o3)n2)cc1",
    "QUALIFIER SIGN": "=",
    "MEASURED": 4
  },
  {
    "COMPOUND": "COc1cc(/C=C2\\SC(=S)N(c3cccc(Cl)c3)C2=O)cc(OC)c1O",
    "QUALIFIER SIGN": ">",
    "MEASURED": 100
  },
  {
    "COMPOUND": "Nn1c(Cc2ccccc2F)nnc1SCc1cc(=O)oc2cc(O)c(O)cc12",
    "QUALIFIER SIGN": ">",
    "MEASURED": 100
  },
  {
    "COMPOUND": "COc1cc(/C=C2\\SC(=S)N(c3cccc(C(F)(F)F)c3)C2=O)cc(OC)c1O",
    "QUALIFIER SIGN": ">",
    "MEASURED": 100
  },
  {
    "COMPOUND": "Cc1c(Cc2ccccc2)c(=O)oc2c(O)c(O)ccc12",
    "QUALIFIER SIGN": "=",
    "MEASURED": 10
  },
  {
    "COMPOUND": "CCC1(C)Cc2ccccc2-c2[nH]c3nnc(S)n3c(=O)c21 (stereo not drawn)",
    "QUALIFIER SIGN": "=",
    "MEASURED": 80
  },
  {
    "COMPOUND": "Cc1nc(-c2c[nH]c(C(=O)O)c2)cs1",
    "QUALIFIER SIGN": ">",
    "MEASURED": 100
  },
  {
    "COMPOUND": "Cn1c(SCc2cc(=O)oc3cc(O)c(O)cc23)nc2ccccc21",
    "QUALIFIER SIGN": "=",
    "MEASURED": 35
  },
  {
    "COMPOUND": "Cc1c(CCC(=O)O)c(=O)oc2c(C)c(OCc3ccc(Br)cc3F)ccc12",
    "QUALIFIER SIGN": ">",
    "MEASURED": 100
  },
  {
    "COMPOUND": "COc1cc(/C=C2\\SC(=S)N(c3ccc(Cl)cc3)C2=O)cc(OC)c1O",
    "QUALIFIER SIGN": ">",
    "MEASURED": 100
  },
  {
    "COMPOUND": "Cc1ccc(C)n1-c1ccc(SCC(=O)O)cc1",
    "QUALIFIER SIGN": ">",
    "MEASURED": 100
  },
  {
    "COMPOUND": "CCOc1ccccc1C(=O)Nc1nc2ccc(S(N)(=O)=O)cc2s1",
    "QUALIFIER SIGN": "=",
    "MEASURED": 10
  },
  {
    "COMPOUND": "COc1cc(C(=O)Nc2nc3ccc(S(=O)(=O)N4CCOCC4)cc3s2)cc(OC)c1OC",
    "QUALIFIER SIGN": "=",
    "MEASURED": 70
  },
  {
    "COMPOUND": "Cc1ccc(C)n1-c1ccc(C(=O)O)c(O)c1",
    "QUALIFIER SIGN": ">",
    "MEASURED": 100
  },
  {
    "COMPOUND": "COc1cc(/C=C2\\SC(=S)N(c3ccc([N+](=O)[O-])cc3)C2=O)cc(OC)c1O",
    "QUALIFIER SIGN": "=",
    "MEASURED": 11
  },
  {
    "COMPOUND": "Cc1noc(NS(=O)(=O)c2ccc(NC(=O)CSc3nnc(-c4ccccc4)c(-c4ccccc4)n3)cc2)c1C",
    "QUALIFIER SIGN": "=",
    "MEASURED": 68
  }
]
